B1: glmS ribozyme (parent)
chain: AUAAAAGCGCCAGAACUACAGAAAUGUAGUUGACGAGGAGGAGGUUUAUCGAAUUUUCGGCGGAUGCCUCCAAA

Variants of: B1
protocol: self-cleavage kobs at 2500 uM GlcN6P; higher = faster cleavage; RNA array
study conditions: with glucosamine-6-phosphate
Variants at the floor of the assay were thinned out.
endpoint name: self-cleavage kobs at 2500 uM GlcN6P (s⁻¹)
Numbers only, in s⁻¹.

Previously resolved entries follow.
- sequence variant: "G13U A39G U55G"
  self-cleavage kobs at 2500 uM GlcN6P (s⁻¹): 0.000683
- sequence variant: "U31G G32A"
  self-cleavage kobs at 2500 uM GlcN6P (s⁻¹): 0.000689
- sequence variant: "G44A U46G"
  self-cleavage kobs at 2500 uM GlcN6P (s⁻¹): 0.000213

Go through the list and state self-cleavage kobs at 2500 uM GlcN6P for each entry.
1. C68A C71G
2. A14U U47G C68U
3. A48G U54G C70U

Reply text:
1. 3.63e-05
2. 0.000197
3. 0.000276
